Molecular target: human glucose-6-phosphate isomerase (GPI) (Homo sapiens)
quantity_kind: Ki (mM)

Below: 3 compounds and their reported Ki.
O=C(O)/C=C\C(=O)O [Maleate] :: 7.15
O=C(CO)COP(=O)(O)O [Dihydroxyacetone phosphate] :: 4.47
Nc1ncnc2c1ncn2[C@@H]1O[C@H](COP(=O)(O)OP(=O)(O)O)[C@@H](O)[C@H]1O :: 3.97

A. NO [Hydroxylamine]
B. C/C(=C/C(=O)O)C(=O)O [Citraconate]
C. C=C(OP(=O)(O)O)C(=O)O [Phosphoenolpyruvate]
D. NCCc1c[nH]cn1
Q. List by increasing Ki. List the labels according to the requested ordering.
A. B, C, D, A
(B: 2.17 mM, C: 5.61 mM, D: 9.25 mM, A: 21.1 mM)

----------
Target: human triosephosphate isomerase (TPI) (Homo sapiens)
Sequence (P60174 whole entry): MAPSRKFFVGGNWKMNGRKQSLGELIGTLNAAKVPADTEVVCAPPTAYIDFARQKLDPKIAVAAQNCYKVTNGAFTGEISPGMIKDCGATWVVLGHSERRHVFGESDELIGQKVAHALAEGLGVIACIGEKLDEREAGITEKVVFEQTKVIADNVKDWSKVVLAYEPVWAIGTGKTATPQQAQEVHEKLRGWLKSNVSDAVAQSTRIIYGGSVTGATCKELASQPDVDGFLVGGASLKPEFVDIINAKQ
Experiment: GAPDH-coupled kinetic assay, dose response
pEC50: −log10 of the molar value.
quantity_kind: pEC50

O=C(O)C(=O)O [Oxalate] :: 1.90
O=P(O)(O)OC(CO)CO [Glycerol-2-phosphate] :: 2.14
O=P(O)(O)OC[C@H](O)CO [Glycerol-3-phosphate] :: 2.06
CC(C(=O)O)C(=O)O [Methylmalonate] :: 1.79

----------
Target: UniProt P06744
Experiment: G6PDH-coupled kinetic assay, dose response
quantity_kind: EC50 (mM)

Below: 5 compounds and their reported EC50.
C=C(OP(=O)(O)O)C(=O)O [Phosphoenolpyruvate] :: 11.8
NCCc1c[nH]cn1 :: 7.35
O=C(O)/C=C\C(=O)O [Maleate] :: 9.48
Nc1ncnc2c1ncn2[C@@H]1O[C@H](COP(=O)(O)OP(=O)(O)O)[C@@H](O)[C@H]1O :: 8.66
C/C(=C/C(=O)O)C(=O)O [Citraconate] :: 8.05

1. O=C(CO)COP(=O)(O)O [Dihydroxyacetone phosphate]
2. NO [Hydroxylamine]
Q. Which entry has a larger number for EC50, 1 or 2 ? Your answer should be the label of the entry you select.
A. 2
(2: 14.6 mM, 1: 8.24 mM)

----------
Target: human triosephosphate isomerase (TPI) (Homo sapiens)
pKi: −log10 of the molar value.
quantity_kind: pKi

Below: 2 compounds and their reported pKi.
O=P(O)(O)OC[C@H](O)CO [Glycerol-3-phosphate] :: 2.69
CC(C(=O)O)C(=O)O [Methylmalonate] :: 1.76

P. O=C(O)C(=O)O [Oxalate]
Q. O=P(O)(O)OC(CO)CO [Glycerol-2-phosphate]
Q. Which entry has a larger number for pKi, P or Q ? Your answer should be the label of the entry you select.
A. Q

----------
Target: human triosephosphate isomerase (TPI) (Homo sapiens)
quantity_kind: Kd (mM)

CC(C(=O)O)C(=O)O [Methylmalonate] :: 12.2
O=P(O)(O)OC(CO)CO [Glycerol-2-phosphate] :: 5.31

A. O=P(O)(O)OC[C@H](O)CO [Glycerol-3-phosphate]
B. O=C(O)C(=O)O [Oxalate]
Q. Which entry has a larger number for Kd, A or B ? Your answer should be the label of the entry you select.
A. B
(B: 19.1 mM, A: 6.79 mM)

----------
Target: UniProtKB P06744
pKd: −log10 of the molar value.
quantity_kind: pKd

Nc1ncnc2c1ncn2[C@@H]1O[C@H](COP(=O)(O)OP(=O)(O)O)[C@@H](O)[C@H]1O :: 1.72
NCCc1c[nH]cn1 :: 1.88
C=C(OP(=O)(O)O)C(=O)O [Phosphoenolpyruvate] :: 1.95
C/C(=C/C(=O)O)C(=O)O [Citraconate] :: 1.70
O=C(O)/C=C\C(=O)O [Maleate] :: 1.84
O=C(CO)COP(=O)(O)O [Dihydroxyacetone phosphate] :: 1.76
